Test system: NCI-H23 lung
Assay: NCI tumour cell line growth inhibition, 48 h
readout_label: TGI (µM)
The reply should contain only the number, in µM.

Sample "NC(N)=N/N=C(/c1ccccc1)c1ccc(F)cc1" ; TGI observed: 8.94

Reported TGI for "CN1CCN(Cc2ccc(C(=O)Nc3cncc(C#Cc4cnc(N)c5ccccc45)c3)cc2C(F)(F)F)CC1" was 4.41

Record summary for "O=C(NS(=O)(=O)Nc1ccc(Cl)cc1)OCc1ccc(Cl)cc1Cl" : reported TGI = 52.3

Field TGI (entry CCC(C)C1NC(=O)c2nc(oc2-c2ccccc2)-c2csc(n2)-c2csc(n2)-c2nc(oc2C)-c2coc(n2)CNC(=O)C(C(C)CC)NC1=O (stereo not given) ) reads 0.155

Data point: "CCCCN(CC)c1nc(C)nc2c1c(C)c(C)n2-c1c(C)cc(C)cc1C" ; TGI = 28.2

GET /value?item= "Clc1nc(Cl)nc(NC23CC4CC(CC(C4)C2)C3)n1" &field=TGI returns 34.1

// sample "[N-]=[N+]=Nc1c(Cl)c(=O)n(-c2ccccc2)c2ccccc12" , its TGI was 36.7

So for "C=C1C(=O)O[C@H]2[C@H]1CC/C(CNC(=O)c1c[nH]c3ccc(F)cc13)=C\CC[C@@]1(C)O[C@@H]21" , the logged TGI turned out to be 3.8

response.value for "COc1cc2c(cc1OCCCCCOc1cc3c(cc1OC)C(=O)N1CCC[C@H]1C(=O)N3)N=C[C@@H]1CCCN1C2=O" (field: TGI) = 1.89

Briefly, TGI measured for CCCCCCCCCCCCCCCC(=O)NCC(COP(=O)([O-])OCC[N+](C)(C)C)OCC (stereo not given) : 39.3

For reference, reported TGI for "Cc1nn(-c2ccc(F)cc2)c2ncnc(Nc3ccc(NC(=O)Nc4ccc(Cl)c(C(F)(F)F)c4)cc3)c12" stands at 4.6

The reported value for "Cc1ccc(-c2cc(N)n(-c3nc4c([nH]3)c(=O)n(C)c(=O)n4C)n2)cc1" in terms of TGI is 28

The compound listed as CC1C(c2cc(C(C)(C)C)c(O)c(C(C)(C)C)c2)c2cc3c(cc2OC1N1CCOCC1)OCO3 (stereo not given) has a reported TGI of 94.9

For record "COc1cc(/C=C\[N+](=O)[O-])ccc1O" the listed TGI is 11.4

Sure, the documented TGI for O=C1CC(O)c2c1csc2Br (stereo not given) is 59.1

TGI reading for "CC(=O)c1ccc(Nc2cc(-c3ccccc3)nc3c(O)cccc23)cc1" : 64.7

###

Test system: CCRF-CEM leukemia
Assay: NCI tumour cell line growth inhibition, 48 h
readout_label: TGI

The recorded TGI for entry "CCn1c(-c2nonc2N)nc2c(C#CCN)ncc(OCCCN)c21" equals > 25 µM

Form: compound = "C=CC(=O)Nc1cccc(-c2nc(SC)nc(Nc3ccccc3OC)c2C#N)c1" ; TGI = > 100 µM

The compound listed as "CCOC(=O)c1sc2nc(SC)nc3c2c1N=CN3c1ccc(Br)cc1" has a reported TGI of > 100 µM

Value of measured TGI for the entry "C[C@@H]1CC[C@H]2C(COCC3=C(C(F)(F)F)O[C@@H]4O[C@@]5(C)CC[C@H]6[C@H](C)CC[C@@H]3[C@@]46OO5)=C(C(F)(F)F)O[C@@H]3O[C@@]4(C)CC[C@@H]1[C@]32OO4" : > 100 µM

The compound identified as "CC1(C)N=C(N)N=C(N)N1c1ccc(CCCCc2ccc(S(=O)(=O)F)cc2)cc1" registered its TGI at 19.7 µM

Recorded result, "c1ccc(C[P+]2(c3ccccc3)c3ccccc3-c3ccccc32)cc1" , TGI: > 100 µM

Form field TGI, entry "FC(F)(F)c1nc(-c2ccccc2Cl)[nH]c1C(F)(F)F" : 1.6 µM

Sample "COc1ccc2c(c1)c1c(n2CCN2CCOCC2)-c2ccccc2CC1" ; TGI observed: 69.5 µM

# compound "C/C(=N\NC(=S)NC(C)C)c1nc2ncccc2[nH]1" ; its TGI = > 100 µM

Memo: "COc1cc2ncn(-c3cc(OCc4ccccc4Cl)c(C(N)=O)s3)c2cc1OC" , reported TGI: > 10.6 µM

So for COC(=O)C(c1[nH]nc2ccccc12)C(C(=O)OC)c1[nH]nc2ccccc12 (stereo unspecified) , the logged TGI turned out to be > 100 µM

// CCOC(=O)C(OCC1CC=CCC1)Sc1ccccc1 (stereo unspecified) : TGI value = > 100 µM

Record COc1ccc(-c2c(C#N)c(N)n(C3OC(CO)C(O)C(O)C3O)c(=S)c2C#N)cc1 (stereo unspecified) , field TGI: > 100 µM

# TGI of "COc1cc2c(c3c1C=CCO3)C(=O)c1ccccc1C2=O" = 66.4 µM

Value of measured TGI for the entry COc1ccc(C2C(Cl)C(=O)N2NC(=O)c2ccc(NC(C)=O)cc2)cc1 (stereo unspecified) : > 100 µM

Noted for C#CCNC(=O)NC(CCCNC(=O)OCc1ccccc1)C(=O)OCc1ccccc1 (stereo unspecified) : its TGI reads > 100 µM

According to the records, this compound "CCOP(=O)(OCC)[C@H](O)c1ccsc1" displays TGI of > 100 µM

Sure, the documented TGI for C=C1CCC2C(/C=C(\C)CCC1O)OC(=O)C2C (stereo unspecified) is > 100 µM

Reported TGI for CO[C@@H](C(=O)OC1C=CC2(CC1)C(=O)N(C)c1ccccc12)c1ccccc1 (stereo partly specified) was > 100 µM

# TGI (compound: O=[N+]([O-])[C@@H]1C2C=CC(C2)[C@H]1Cl (stereo partly specified) ) is > 100 µM

Lookup result for "c1sc(NC2=NCCO2)c2c1CCCC2" ; measured TGI: > 100 µM

###

Tested on: SK-OV-3 ovarian
Assay: NCI tumour cell line growth inhibition, 48 h; in the data active means GI50 below about 0.43 µM; inactive means the rest
Could you please pick one outcome from this set? label 1 (active), label 0 (inactive)

QUERY: Dear colleague, could you share the recorded outcome for "O=c1cc(-c2cccc(F)c2)[nH]c2cc3c(cc12)OCO3" when you have a moment?
RESULT: label 1

QUERY: Fill in: this test's call for "CC(C)(C)c1cc(O)c(O)c(C(C)(C)C)c1" is ___
RESULT: label 0

QUERY: Record lookup: outcome of this test for "Clc1ccccc1C(c1ccccc1)(c1ccccc1)n1ccnc1" ?
RESULT: label 0

QUERY: Test call for this compound, please: "O=C(NNc1nc2c(F)cccc2n2cccc12)c1cnccn1"
RESULT: label 0

QUERY: Could you please tell me the result logged for "Cc1nn(-c2ccc(S(=O)(=O)[O-])cc2)c([O-])c1N=[N+](C)c1ccc(-c2ccc(N=Nc3ccc4c(S(=O)(=O)[O-])cc(S(=O)(=O)[O-])c(N)c4c3[O-])c([O-])c2)cc1[O-].[Cu+2].[Cu+2].[Na+]" in this assay?
RESULT: label 0

QUERY: # fetch the recorded call for "CCOc1ccc(S(=O)(=O)/N=C2\C=C(SCC(=O)O)C(=O)c3ccccc32)cc1" here
RESULT: label 0

QUERY: Status in this test for COc1ccc(-c2nn(-c3cccc(Cl)c3)cc2C2CC(c3ccccc3)=NN2C(C)=O)cc1 (stereo unspecified) ?
RESULT: label 0

QUERY: What was the test verdict on "O=[Se]([O-])c1ccccc1.O=[Se]([O-])c1ccccc1.[OH3+].[OH3+].[Pt+2]" ?
RESULT: label 0

QUERY: Each compound tested received a call. Report the one for "O=C(c1ccc2ccccc2c1)c1c(C(F)(F)F)n([O-])c2cc(Cl)c(Cl)cc2[n+]1=O" .
RESULT: label 0

QUERY: Please share the test call associated with "Brc1cccc(-c2cc(-c3ccc4c(c3)OCCO4)[nH]n2)c1" .
RESULT: label 0

QUERY: Please state the recorded outcome for this compound: "COc1cc(C(=O)NC2c3ccccc3-c3ccccc32)c(N)cc1OCc1ccccc1"
RESULT: label 0

###

Test system: NCI-H460 lung
In this exercise, the only acceptable responses are active, inactive

QUERY: Query: recorded result category for "Brc1cccc(-c2cc(-c3ccc4c(c3)OCCO4)[nH]n2)c1" in this test
RESULT: inactive

QUERY: # outcome recorded in this test, key = "CNC(=O)c1ccccc1CC1(O)c2ccccc2Oc2ccccc21"
RESULT: inactive

QUERY: Hello, I am checking results. What call was entered for "Cc1cc2nc3c4cc(Cl)ccc4n(CCN(C)C)c3nc2cc1C" ?
RESULT: inactive

QUERY: Called result for "Nc1n[nH]c2ccc([C@@H]3Nc4ccc5[nH]ncc5c4[C@H]4[C@H]5CCC(C5)[C@H]43)cc12"
RESULT: active

QUERY: Which outcome was entered for the molecule "CN=C(N)N/N=C(\c1ccccc1)c1ccc(Br)cc1" in this test?
RESULT: active
